Overview of reported IC50 across a group of molecules:
# ASSAY_TARGET: human mGluR5d (Homo sapiens)
# Sequence (P41594 21-942 isoform P41594-3 limits assumed): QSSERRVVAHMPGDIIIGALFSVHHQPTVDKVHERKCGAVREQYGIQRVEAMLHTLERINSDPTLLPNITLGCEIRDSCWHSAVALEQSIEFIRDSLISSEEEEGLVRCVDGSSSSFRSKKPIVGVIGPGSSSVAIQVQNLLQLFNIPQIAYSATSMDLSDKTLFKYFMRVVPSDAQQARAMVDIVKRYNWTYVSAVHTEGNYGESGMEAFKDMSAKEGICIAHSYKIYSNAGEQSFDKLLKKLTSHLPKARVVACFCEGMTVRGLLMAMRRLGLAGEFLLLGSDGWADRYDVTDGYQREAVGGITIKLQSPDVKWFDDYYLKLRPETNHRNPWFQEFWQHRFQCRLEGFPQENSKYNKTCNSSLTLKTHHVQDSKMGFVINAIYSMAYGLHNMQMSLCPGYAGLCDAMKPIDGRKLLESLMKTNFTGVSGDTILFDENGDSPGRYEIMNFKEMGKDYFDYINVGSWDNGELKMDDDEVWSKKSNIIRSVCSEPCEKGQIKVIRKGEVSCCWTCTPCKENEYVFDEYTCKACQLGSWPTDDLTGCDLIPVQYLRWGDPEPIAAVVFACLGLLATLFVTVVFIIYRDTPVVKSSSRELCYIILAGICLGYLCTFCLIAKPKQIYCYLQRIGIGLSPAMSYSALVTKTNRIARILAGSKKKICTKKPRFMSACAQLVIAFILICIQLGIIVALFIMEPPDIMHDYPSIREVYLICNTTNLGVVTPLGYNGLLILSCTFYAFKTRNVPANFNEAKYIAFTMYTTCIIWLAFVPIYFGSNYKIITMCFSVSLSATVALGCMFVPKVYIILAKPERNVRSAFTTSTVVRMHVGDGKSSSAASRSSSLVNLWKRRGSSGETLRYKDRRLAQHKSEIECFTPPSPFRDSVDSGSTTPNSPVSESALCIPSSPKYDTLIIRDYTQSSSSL
# MEASUREMENT_PROTOCOL: FLIPR assay, mGluR5 antagonism in cells expressing human mGluR5d
# CONDITION_LABEL: intracellular calcium mobilization, read-out: FLIPR hmGluR5d
# Method: The properties of the compounds of the invention can be analyzed using standard assays for pharmacological activity. […] Cells expressing human mGluR5d as described in WO97/05252 are seeded at a density of 100,000 cells per well on collagen coated clear bottom 96-well plates with black sides and experiments are done 24 h following seeding. […] The fluorescence signal is sampled 50 times at 1 second intervals followed by 3 samples at 5 second intervals immediately after each of the two additions. […]
Give just the number in nM; leave the unit off.

Some solved entries appear below for comparison.
MOLECULE: Clc1cccc(-c2nc(CN3CCCn4c(-c5cncnc5)nnc43)no2)c1 [Example 35.17]
IC50, nM: 44
--
MOLECULE: C[C@H](c1cc(-c2cccc(Cl)c2)on1)N1CCCn2c(-c3cn[nH]c(=O)c3)nnc21 [Example 59.3]
IC50, nM: 34

// returns reported IC50 for input Cc1cccc(-n2nnc(CN3CCCn4c(-c5cccnc5)nnc43)n2)c1 [Example 35.1] 37

And the next one, Clc1cccc(-c2nc(CN3CCCn4c(-c5cccnc5)nnc43)no2)c1 [Example 35.2] ? 52
